target: T1, soluble KDR extracellular domain (ECD) (Calbiochem) (human, UniProt P35968 20-764); test: High Antigen ELISA, KDR coat 500 ng/mL, supernatant 1:18,225
T1 construct: extracellular domain; Bought protein; also called KDR-ECD; VEGF Receptor 2 D1-7, Cat. #676490
T1 sequence (P35968 20-764): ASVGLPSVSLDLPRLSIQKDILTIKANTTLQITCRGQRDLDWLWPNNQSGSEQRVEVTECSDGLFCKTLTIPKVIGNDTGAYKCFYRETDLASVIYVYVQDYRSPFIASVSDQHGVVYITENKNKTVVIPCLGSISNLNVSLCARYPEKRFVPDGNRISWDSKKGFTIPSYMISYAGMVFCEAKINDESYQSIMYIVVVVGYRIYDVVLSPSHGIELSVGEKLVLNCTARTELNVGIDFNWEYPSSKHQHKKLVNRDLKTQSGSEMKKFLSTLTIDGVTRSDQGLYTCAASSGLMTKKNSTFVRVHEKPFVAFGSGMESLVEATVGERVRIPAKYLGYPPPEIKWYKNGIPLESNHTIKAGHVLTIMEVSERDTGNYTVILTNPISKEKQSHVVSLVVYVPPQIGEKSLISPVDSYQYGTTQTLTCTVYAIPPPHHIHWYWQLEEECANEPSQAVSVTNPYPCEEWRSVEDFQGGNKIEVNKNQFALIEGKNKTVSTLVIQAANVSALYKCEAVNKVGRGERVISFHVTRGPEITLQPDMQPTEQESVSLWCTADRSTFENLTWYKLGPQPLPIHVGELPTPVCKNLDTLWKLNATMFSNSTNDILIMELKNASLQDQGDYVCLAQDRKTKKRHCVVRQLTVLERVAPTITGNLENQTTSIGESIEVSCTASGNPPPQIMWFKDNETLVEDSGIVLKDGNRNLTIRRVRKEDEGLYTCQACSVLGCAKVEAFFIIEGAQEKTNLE
Exercise: for every item that follows, state its recorded ELISA reading.

binder	ELISA reading
27A3 (antibody, V domains shown, Fully human mAb from XenoMouse hybridoma, tested as hybridoma supernatant) VH: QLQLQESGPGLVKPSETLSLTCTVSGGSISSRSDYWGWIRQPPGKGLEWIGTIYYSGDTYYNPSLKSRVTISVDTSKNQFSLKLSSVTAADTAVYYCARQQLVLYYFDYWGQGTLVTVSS VL: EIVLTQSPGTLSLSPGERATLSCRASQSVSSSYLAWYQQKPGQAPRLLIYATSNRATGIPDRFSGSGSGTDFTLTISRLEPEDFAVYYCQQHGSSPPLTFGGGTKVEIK	0.4

# context switch: different binder, same ELISA reading
Given 29H3 (antibody, V domains shown, Fully human mAb from XenoMouse hybridoma, tested as hybridoma supernatant) VH: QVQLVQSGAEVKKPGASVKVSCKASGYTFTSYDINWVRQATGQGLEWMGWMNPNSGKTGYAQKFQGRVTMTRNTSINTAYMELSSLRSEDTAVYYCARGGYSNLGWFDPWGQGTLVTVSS VL: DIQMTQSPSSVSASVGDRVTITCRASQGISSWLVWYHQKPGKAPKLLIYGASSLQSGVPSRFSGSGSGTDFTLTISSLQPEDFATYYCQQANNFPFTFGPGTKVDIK , respond with its ELISA reading. 0.21
